Ref: the supplement of paper PMC6757056

The variants listed here are annotated with their normalized RNA/DNA level with ligand (log10).
B1: library; a variant is named by its letters at N, in order (parent)
chain: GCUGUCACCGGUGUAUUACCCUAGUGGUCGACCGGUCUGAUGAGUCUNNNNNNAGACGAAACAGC

# Variants of: B1
# assay remarks: normalized RNA/DNA level with ligand (relative to sTRSVctl = 100) (log10 (% of sTRSVctl)); ligand: hypoxanthine (xanthine aptamer); higher = less ribozyme self-cleavage, higher mRNA level
# run conditions: ligand concentration (+) RNA-Seq: 5 mM, HEK293T, reporter: mCherry (pCS4076), ligand present: yes
Please respond with just the number, no unit label.

Consider the worked cases shown below.
* CAAAGC | 1.96
* GGAGUU | 1.97
* CUUGGA | 1.95
* CCGUGU | 1.89
* AACUUA | 1.9

API: the following record is the query input.
Record GAGAGU , field normalized RNA/DNA level with ligand (log10): 1.87
